- PROTOCOL_DETAILS: NCI Yeast Anticancer Drug Screen. Data for the wt1 strain (AID 149);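 note: 0% = growth of vehicle-treated wt1 cultures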
- CONDITION_SUMMARY: S. cerevisiae wt1 strain (SPY 50644) growth inhibition; at 33.0 µM; hits give high values
About 79,000 compounds went through this panel and 15% of them were active in at least one assay; those are over-represented in the sample as a whole.
MEASURE: growth inhibition (%)
Express your answer in %, writing the number without its unit.

> print(dat)
                                   molecule            measure  unit  obs.value
1           CCOC(=O)Nc1ccc(C)c(NC(=O)OCC)c1  growth inhibition     %         15
2  O=C1Oc2ccccc2C(=O)/C1=C/N1C(=O)N/C(=C\c2ccccc2Br)C1=O  growth inhibition     %         18
3  NC(=S)N1N=C2c3ccccc3CC[C@H]2[C@@H]1c1ccc(Cl)cc1  growth inhibition     %         46
4  CC(C)N(CCCNc1c2ccccc2nc2cccc([N+](=O)[O-])c12)C(C)C  growth inhibition     %         94

Field: next molecule
Could you please provide reported growth inhibition for OC(CC(O)(C(F)(F)F)C(F)(F)F)c1ccc(C(O)CC(O)(C(F)(F)F)C(F)(F)F)cc1 (stereo unspecified) ? Thanks! 99

---

- PROTOCOL_DETAILS: NCI Yeast Anticancer Drug Screen. Data for the cln2 rad14 strain (AID 165);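 note: 0% = growth equal to vehicle treated cultures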
- CONDITION_SUMMARY: S. cerevisiae cln2 rad14 strain, at 5.0 µM (retest, dose inferred, filed as 0.5), hits give high values
The panel holds about 79,000 compounds, 15% with a hit somewhere; the sample as a whole holds those more often.
MEASURE: growth inhibition (%)
Express your answer in %, writing the number without its unit.

Here's what some known entries look like.
> print(dat)
                                   compound            measure  obs.value
1  NC(CS)C(=O)NCCNc1ccc(NCCNC(=O)C(N)CS)c2c1C(=O)c1c(O)ccc(O)c1C2=O (stereo not given)  growth inhibition         20
2   O=[N+]([O-])/C=C/c1cc2ccc3ccccc3c2[nH]1  growth inhibition         -6

Could you please provide reported growth inhibition for NC(=S)N/N=C1\c2ccccc2CCC1CCC1(O)CCc2ccccc2C1=O (stereo not given) ? Thanks! 18

Could you please provide reported growth inhibition for CC(=O)/C=C/c1cc([N+](=O)[O-])ccc1O ? Thanks! 36

Could you please provide reported growth inhibition for c1cc(-c2sc(-c3ccncc3)c(-c3ccncc3)c2-c2ccncc2)ccn1 ? Thanks! -48

Could you please provide reported growth inhibition for CC(C)NCCCNc1c2ccccc2nc2cccc([N+](=O)[O-])c12 ? Thanks! 98

Could you please provide reported growth inhibition for CCN1CCC(O)(c2ccc(Oc3ccc(Cl)cc3)cc2)C(C(=O)c2ccc(Oc3ccc(Cl)cc3)cc2)C1 (stereo not given) ? Thanks! 23

Could you please provide reported growth inhibition for NC(CCCCCCCCCCCCC(N)C(=O)c1ccccc1)C(=O)c1ccccc1 (stereo not given) ? Thanks! -26

Could you please provide reported growth inhibition for O=C(CCSC1=NCCCN1)c1ccc(F)cc1 ? Thanks! -3

---

- PROTOCOL_DETAILS: NCI Yeast Anticancer Drug Screen. Data for the sgs1 strain (AID 173);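 note: 0% = growth of vehicle-only control cultures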
- CONDITION_SUMMARY: S. cerevisiae sgs1 mutant, at 100.0 µM
Compounds without any hit were thinned out: in the full panel of roughly 79,000, 15% have a hit. Active and inactive are the calls of the source. Rule as the data show it: active = growth inhibition above about 70%; inactive = the rest.
The reply should name one outcome from active, inactive

Please review the following examples before continuing.
> print(dat)
                                   compound  discrete.label
1  Nc1ccc(S(=O)(=O)Nc2nc3c(c(=O)[nH]2)CCCC3)cc1          active
2   O=[N+]([O-])/C=C/c1cc2ccc3ccccc3c2[nH]1          active
3           CCOC(=O)Nc1ccc(C)c(NC(=O)OCC)c1        inactive
4            COC(=O)C(=O)CC(=O)c1cccc(OC)c1          active
5  CC1=CC(C)(C)SC(SSSC2=NC(C)=CC(C)(C)S2)=N1          active
6  C=CC(C)(C)N1C(=O)C(C(C)=O)=C(O)C1Cc1c[nH]c2ccccc12 (configuration not stated)          active

Now look at this entry.
Please let me know the test result on file for Cc1c2cc[n+](CCO)cc2c(C)c2c1[nH]c1ccc(O)cc12 . inactive

---

- PROTOCOL_DETAILS: NCI Yeast Anticancer Drug Screen. Data for the rad14 strain (AID 159);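 note: 0% = growth of vehicle-treated control cultures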
- CONDITION_SUMMARY: S. cerevisiae rad14 strain growth inhibition; at 100.0 µM; hits give high values
About 79,000 compounds went through this panel and 15% of them were active in at least one assay; those are over-represented in the sample as a whole.
MEASURE: growth inhibition (%)
Express your answer in %, writing the number without its unit.

Here's what some known entries look like.
> print(dat)
                                   molecule  unit  obs.value
1                CCCCCCCCCCCCOCCOCCOCC(N)=O     %         94
2  CC(=O)/C(=C\c1ccc(Cl)c(Cl)c1)C(=O)C(C)CN(C)C (stereo not given)     %         92
3                   O=C(NO)c1coc2ccccc2c1=O     %          1
4  CCCNCC(=O)O[C@]1(CC)C(=O)OCc2c1cc1n(c2=O)Cc2cc3ccccc3nc2-1     %         87

Field: next molecule
Could you please provide reported growth inhibition for O=S(=O)(NNc1ccccc1)c1ccccc1 ? Thanks! 44

---

- PROTOCOL_DETAILS: NCI Yeast Anticancer Drug Screen. Data for the rad50 strain (AID 155);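 note: 0% = growth of vehicle-only cultures of the same strain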
- CONDITION_SUMMARY: S. cerevisiae rad50 strain growth inhibition; at 100.0 µM; hits give high values
This is part of a sample that, as a whole, favours compounds with a hit. Of some 79,000 tested, about 15% had one in any assay.
Let's look at some compounds and their measured growth inhibition.
Express your answer in %, writing the number without its unit.

Here's what some known entries look like.
> print(dat)
                        structure.as.smiles  obs.value
1                       Fc1cc(F)c(F)c(S)c1F         97
2  O=C(c1ccccc1)[C@H]1Nc2ccc(Cl)cc2[C@H]2OCCC[C@@H]12         91
3      CN(C)/C(=N/C(=S)Nc1ccccc1)SCc1ccccc1         10

Field: next compound
Could you please provide reported growth inhibition for CCCCCCCC/C=C\CCCCCCCCN ? Thanks! 96

---

- PROTOCOL_DETAILS: NCI Yeast Anticancer Drug Screen. Data for the mgt1 strain (AID 153)
- CONDITION_SUMMARY: S. cerevisiae mgt1 mutant growth inhibition; at 33.0 µM; hits give high values
About 79,000 compounds went through this panel and 15% of them were active in at least one assay; those are over-represented in the sample as a whole.
Label rule, in plain words: growth inhibition of 20% and up is yes, under 20% is no.

> print(dat)
                                   compound  discrete.label
1  CCN(CC)CCNc1ccc2ncn3c4ccc(O)cc4c(=O)c1c23              no
2   O=C(/C(=C/c1ccc(O)cc1)c1ccccc1)c1ccccc1             yes
3    Cc1cc(Cl)ccc1NC(=O)/C(Cl)=C(/Cl)C(=O)O             yes

Tell me whether growth inhibition is at least 20% here: CC1(C)OC(=O)C(=Cc2ccc([N+](=O)[O-])s2)C(=O)O1 yes

---

- PROTOCOL_DETAILS: NCI Yeast Anticancer Drug Screen. Data for the CLN2oe strain (AID 163);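 note: 0% = growth of vehicle-only control cultures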
- CONDITION_SUMMARY: S. cerevisiae CLN2oe strain, at 33.0 µM
About 79,000 compounds went through this panel and 15% of them were active in at least one assay; those are over-represented in the sample as a whole. Activity calls are given as the source filed them. No stated cut-off is given here; in the data, active means growth inhibition above about 70%; inactive means the rest.
The reply should name one outcome from active, inactive

COMPOUND	DISCRETE_LABEL
O=[N+]([O-])c1cc[n+]([O-])c(Cl)c1	active
O=[N+]([O-])c1cn[n+]([O-])c2ccccc12	active
N#C/C(=C\NC(=S)Nc1ccc(S(N)(=O)=O)cc1)C(=O)c1ccc2ccccc2c1	inactive

Please let me know the test result on file for CC(C)=CCC/C(C)=C/CN1C(=O)C=CC1=O . active

Please let me know the test result on file for CN(N=O)C(=O)Nc1ccc(C(=O)O)cc1 . inactive

Please let me know the test result on file for N#CC1OB(O)c2ccccc21 (stereo not given) . inactive

Please let me know the test result on file for CCOc1ccc2nc3ccccc3c(N)c2c1 . inactive

Please let me know the test result on file for O=C(c1cc(=O)c2ccc(O)cc2o1)c1ccc(Cl)cc1Cl . active
